Test system: HOP-62 NSCLC
Test: NCI-60 one-dose screen, 48 h
Settings: 10 µM unless noted
Compounds without any hit were thinned out: in the full panel of roughly 83,000, 20% have a hit. The source made the active and inactive calls. Rule for the calls: active = growth percent below 10; inactive = the rest.
Classes used: 1 = active, 0 = inactive

molecule: NC1=Nc2cc(OCCCN3Cc4ccccc4C3)c(OCC3CC3)cc2C12CCCC2
label: 0

molecule: FC(F)c1nc2ccccc2n1-c1nc(N2CCOCC2)nc(N2CCOCC2)n1
label: 1

molecule: Cc1ccc(F)c(NC(=O)Nc2ccc(-c3cccc4[nH]nc(N)c34)cc2)c1
label: 1

molecule: Nc1ncnc2c1c(-c1cccc(OCc3ccccc3)c1)cn2C1CC(CN2CCC2)C1 (stereo not given)
label: 1

molecule: CCc1ccc(C2=C(O)C(=O)C(c3ccc(CC)cc3)=C(O)C2=O)cc1
label: 1

molecule: CCn1cc(-c2ccnc3[nH]c(-c4cccc(CN(C)C)c4)cc23)c(-c2ccc(NC(=O)N(C)C)cc2)n1
label: 0

molecule: C=CCN1C(=O)c2cccc3c(-c4ccc5c(c4)ncn5C4CCCCC4)ccc(c23)C1=O
label: 0

molecule: CCc1cc2c(c3ccc(C(=O)CBr)cc13)CCCC2
label: 0

molecule: CC(CCCC(=O)O)c1ccoc1 (stereo not given)
label: 0

molecule: O=C(CNc1nnc(-c2ccc(Cl)cc2)o1)Nc1ccc(-c2nc3ccccc3s2)cc1
label: 0

molecule: COCCN1CCN(Cc2ccc(-c3n[nH]c4c3C(=O)c3c(NC(=O)NN5CCOCC5)cccc3-4)cc2)CC1
label: 1

molecule: Cn1ccnc1C(=O)/C=C/c1ccc(CC(=O)Nc2ccc(Br)cc2)cc1
label: 1

molecule: Cc1nc(Nc2n[nH]c3c2CN(C(=O)N[C@H](CN(C)C)c2ccccc2)C3(C)C)c2sccc2n1
label: 1

molecule: Cc1cccc(Cl)c1NC(=O)c1cnc(Nc2cc(N3CCOCC3)cc(S(C)(=O)=O)c2)s1
label: 0

molecule: CCN(CC)C(=O)C[N+](C)(C)CCOC(c1ccccc1)c1ccccc1
label: 0

molecule: COc1ccc(C2CC(=O)c3c(O)c(OC)c(OC)c(OC)c3O2)cc1O (stereo not given)
label: 0

molecule: CCN(CC)CCOc1ccc(/C(=C(\C)c2ccc(Cl)cc2)c2ccc(Cl)cc2)cc1
label: 0

molecule: COc1ccc(Cl)c(Nc2nc3ccccc3nc2NS(=O)(=O)c2cccc(NC(=O)C(C)(C)N)c2)c1
label: 0

molecule: Cc1ccc(NC(=O)NC(=O)CSc2nc3ccccc3nc2C)cc1
label: 0

molecule: O=C1NC(=O)C(c2cnc3ccccn23)=C1c1cn2c3c(cc(F)cc13)CN(C(=O)N1CCCCC1)CC2
label: 0

====

Measured growth by item
Test system: OVCAR-5 ovarian
Assay: NCI-60 one-dose screen, 48 h (100 = growth as untreated, 0 = no growth, -100 = all killed)
Conditions: 10 µM unless noted
Experimental: Growth inhibition of the OVCAR-5 human tumor cell line is measured as a screen for anti-cancer activity. Cells are grown in 96 well plates and exposed to the test compound for 48 hours. Compounds are tested at a single concentration, which is 10^-5 M for most compounds. The reported endpoint is percent growth (GI% or GIPRCNT), where numbers from 0 - 100% represent growth inhibition, and numbers from -100% - 0 represent cell death. For example, a value of 40 represents 60% growth inhibition. […]
The panel holds about 83,000 compounds, 20% with a hit somewhere; the sample as a whole holds those more often.
observed property: growth (%)

compound: Cc1cc(Nc2cc(N3CCN(C)CC3)nc(Sc3ccc(NC(=O)C4CC4)cc3)n2)n[nH]1
test value: 29

compound: CCN1CCN(CCCN(C[C@H]2Cc3ccccc3CN2)[C@H]2CCCc3cccnc32)CC1
test value: 92.7

compound: COc1ccc2c(CCCc3ccc(Cl)cc3Cl)c3[n+](cc2c1OC)CCc1cc2c(cc1-3)OCO2
test value: 28.9

compound: Oc1ccc(C(c2ccc(O)cc2)C(Cl)(Cl)Cl)cc1
test value: 88.5

compound: COc1cccc2cc(-c3nc(C4CCC(C(=O)O)CC4)n4ncnc(N)c34)[nH]c12 (stereo not given)
test value: 25.6

====

System: ACHN renal
Assay: NCI-60 one-dose screen, 48 h (100 = growth as untreated, 0 = no growth, -100 = all killed)
Conditions: 10 µM unless noted
The panel holds about 83,000 compounds, 20% with a hit somewhere; the sample as a whole holds those more often.
Hi! Just check whether growth is below 30%. Below gives T, equal or above gives F.

molecule: C[C@@H](NC(=O)c1ncnc(N)c1Cl)c1ncc(C(=O)Nc2cc(C(F)(F)F)c(Cl)cn2)s1
label: F
--
molecule: O=C1CCC(=O)CC1
label: F
--
molecule: C[C@@H](C[C@H](CCO)c1cc(C(F)(F)F)cc(C(F)(F)F)c1)c1ccc2ccccc2c1
label: F
--
molecule: [2H]C1([2H])[C@H](C)O[C@H](C)C([2H])([2H])N1c1ccc(NC(=O)c2cccc(-c3ccc(OC(F)(F)F)cc3)c2C)cn1
label: F
--
molecule: COc1ccc(C2CC(=O)c3c(O)c(OC)c(OC)c(OC)c3O2)c(O)c1 (stereo unspecified)
label: F
--
molecule: Cn1cc(-c2[nH]c3cc(NC(=O)[C@H](N)C4CCCCC4)cc4c3c2C=NNC4=O)cn1
label: T
--
molecule: CC(C)(O)CC(=O)NCCn1ccc2ncnc(Nc3ccc(Oc4cccc(C(F)(F)F)c4)c(Cl)c3)c21
label: T
--
molecule: COc1cc2c(cc1O)c(=O)n(CCN(C)C)c1c3cc4c(cc3ncc21)OCO4
label: T
--
molecule: Cc1cc(N(CCNc2ccnc3cc(Cl)ccc23)Cc2cccs2)nc(Cl)n1
label: T
--
molecule: CC(C)(C)CC(C)(C)Nc1c(-c2c(O)c3ccccc3oc2=O)nc2c(Cl)cc(C(F)(F)F)cn12
label: F
--
molecule: CNC(=O)c1ccccc1Nc1nc(Nc2ccc3c(c2OC)CCC[C@H](N2CCN(CCO)CC2)C3)ncc1Cl
label: T
--
molecule: COc1c(C(NC(=O)c2ccccc2)c2sccc2C)cc(Cl)c2cccnc12 (stereo unspecified)
label: F
--
molecule: CCCCCCCC(=O)SCC/C=C/[C@@H]1CC(=O)NCc2nc(co2)C2=N[C@@](C)(CS2)C(=O)N[C@@H](C(C)C)C(=O)O1
label: T
--
molecule: Cc1cc2c(-c3nc4ccccn4c3Nc3cccc4ccccc34)c(O)c(O)cc2c(O)c1-c1c(C)cc2c(-c3nc4ccccn4c3Nc3cccc4ccccc34)c(O)c(O)cc2c1O
label: F
--
molecule: O=C(Cc1ccc(/C=C/C(=O)c2ncc[nH]2)cc1)Nc1ccc(S(F)(F)(F)(F)F)cc1
label: F
--
molecule: Cc1ccc(N=C2CSc3nnc(-c4csc5c4CCCC5)n3N2)cc1
label: F
--
molecule: Cc1cc(Nc2nc(N[C@@H](C)c3ncc(F)cn3)ncc2Cl)n[nH]1
label: F
--
molecule: COc1cc(NCCN(CC(C)C)CC(C)C)c2ncc(C)cc2c1
label: F
--
molecule: O=C(Nc1cccc(Cl)c1)Nc1ncc(CCNc2ncnc3ccsc23)s1
label: T
--
molecule: Cc1cnc(Nc2ccc(OCCN3CCCC3)cc2)nc1Nc1cccc(S(=O)(=O)NC(C)(C)C)c1
label: T
--
molecule: Cc1cc(O)cc(-c2c(-c3ccnc(-c4cccnc4)c3)cnn2C)c1
label: F
--
molecule: CCn1cc(-c2ccnc3[nH]c(-c4cccc(CN(C)C)c4)cc23)c(-c2ccc(NC(=O)N(C)C)cc2)n1
label: T
--
molecule: O=C1C=CC2(NN=C(c3ccccc3)N2c2ccccc2)c2cccc(O)c21 (stereo unspecified)
label: F
--
molecule: CCCCCCCCCNCCCCCCCCC
label: F
--
molecule: CC(=O)C1=C(C)NC(SCc2nnc(-c3ccc(C)cc3)o2)=NC1c1ccc(F)cc1 (stereo unspecified)
label: F
--
molecule: CC(=Nc1ccccc1)C1=C(O)C(Cc2ccccc2)NC1=O (stereo unspecified)
label: F
--
molecule: O=C(COc1ccc(/C=C2\Cc3ccc(Cl)cc3C2=O)cc1)Nc1nccs1
label: F
--
molecule: CO[C@H]1C[C@@H]2CC[C@@H](C)[C@@](O)(O2)C(=O)C(=O)N2CCCC[C@H]2C(=O)O[C@H]([C@H](C)C[C@@H]2CC[C@@H](OCCO)[C@H](OC)C2)CC(=O)[C@H](C)/C=C(\C)[C@@H](O)[C@H](OC)C(=O)[C@H](C)C[C@H](C)\C=C/C=C/C=C/1C
label: F
--
molecule: CC(=O)OC1Oc2ccccc2-c2oc(=O)c(-c3cc4ccc(N(C)C)cc4oc3=O)cc21 (stereo unspecified)
label: F
--
molecule: O=C1/C(=C\c2cccc(OCCCCCOc3ccc(Cl)cc3)c2)N=C2SCCCN12
label: F
--
molecule: CCOc1cc2ncc(C#N)c(Nc3ccc(F)c(Cl)c3)c2cc1NC(=O)/C=C/CN(C)C
label: T
--
molecule: COc1cc(CCc2cc(NC(=O)c3ccc(N4C[C@@H](C)N[C@@H](C)C4)cc3)n[nH]2)cc(OC)c1
label: F
--
molecule: Cc1cccc(Cl)c1NC(=O)c1cnc(Nc2cc(N3CCOCC3)cc(S(C)(=O)=O)c2)s1
label: T
--
molecule: COc1cc2c(cc1OCCCCCCN1CCN(c3ncnc4ccccc34)CC1)N=CC1CCCN1C2=O (stereo unspecified)
label: T
--
molecule: Cc1ccsc1C(NC(=O)c1ccccc1)c1cc(Cl)c2cccnc2c1O (stereo unspecified)
label: T
--
molecule: N#Cc1c(C(F)(F)F)cc(Nc2ccc3nc(NCCN4CCCC4)oc3c2)n2c1nc1ccccc12
label: F
